TEST_TARGET: Epidermal growth factor receptor (Homo sapiens) (UniProt P00533)
Sequence (P00533 whole entry, looked up): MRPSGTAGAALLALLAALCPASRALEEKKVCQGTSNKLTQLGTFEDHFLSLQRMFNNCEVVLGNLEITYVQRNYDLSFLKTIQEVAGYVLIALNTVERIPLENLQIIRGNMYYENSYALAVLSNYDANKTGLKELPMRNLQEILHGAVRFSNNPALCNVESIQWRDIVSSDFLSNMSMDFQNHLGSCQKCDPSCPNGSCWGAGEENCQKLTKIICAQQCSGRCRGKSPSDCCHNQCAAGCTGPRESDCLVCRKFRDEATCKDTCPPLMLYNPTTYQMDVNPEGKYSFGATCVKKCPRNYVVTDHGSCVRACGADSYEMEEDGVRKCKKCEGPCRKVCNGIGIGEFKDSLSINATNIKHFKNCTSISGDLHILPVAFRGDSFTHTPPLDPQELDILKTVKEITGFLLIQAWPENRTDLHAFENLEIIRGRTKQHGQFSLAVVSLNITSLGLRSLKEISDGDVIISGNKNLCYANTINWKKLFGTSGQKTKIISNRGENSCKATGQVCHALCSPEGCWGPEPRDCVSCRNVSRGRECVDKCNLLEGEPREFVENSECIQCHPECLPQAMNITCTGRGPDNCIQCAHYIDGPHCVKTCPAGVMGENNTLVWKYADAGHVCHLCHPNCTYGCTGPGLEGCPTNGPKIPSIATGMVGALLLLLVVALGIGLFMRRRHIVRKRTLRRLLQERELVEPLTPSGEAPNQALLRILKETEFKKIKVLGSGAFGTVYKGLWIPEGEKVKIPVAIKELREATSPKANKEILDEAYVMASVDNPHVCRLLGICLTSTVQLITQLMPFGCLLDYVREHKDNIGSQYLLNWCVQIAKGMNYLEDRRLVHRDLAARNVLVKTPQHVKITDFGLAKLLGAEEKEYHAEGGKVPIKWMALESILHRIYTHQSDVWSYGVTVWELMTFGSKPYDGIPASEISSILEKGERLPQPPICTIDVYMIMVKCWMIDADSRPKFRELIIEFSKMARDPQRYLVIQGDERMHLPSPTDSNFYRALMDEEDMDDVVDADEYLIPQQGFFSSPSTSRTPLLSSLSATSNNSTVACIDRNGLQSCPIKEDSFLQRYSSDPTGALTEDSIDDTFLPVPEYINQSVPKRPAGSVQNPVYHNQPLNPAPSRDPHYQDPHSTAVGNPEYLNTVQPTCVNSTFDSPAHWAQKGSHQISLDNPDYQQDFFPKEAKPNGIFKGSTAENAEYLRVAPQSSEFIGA
ASSAY_EXPLANATION: EGFR binders on small-molecule microarrays, primary screen, biochemical, small-molecule microarray, 635 nm fluorescence (AID 1104);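 further: score merges 667 nm emission intensity with spot signal to noise over triplicate slides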
MEASUREMENT_SETUP: EGFR binding, higher = more signal
Outcome: true for composite z-score of at least -0.2; false for anything lower.

As a guide, the following entries are already answered.
GIVEN_SMILES: CCCCCCC#C[Si](O[C@H](c1ccccc1)c1cn(Cc2ccccc2)nn1)(C(C)C)C(C)C
CLASS: true
//
GIVEN_SMILES: [N-]=[N+]=Nc1ccccc1[C@H]1OC(c2ccc(OCCCO)cc2)=N[C@@]1(Cc1ccccc1)C(N)=O
CLASS: true
//
GIVEN_SMILES: CC(C)N1C(=O)c2ccccc2[C@@H](C(=O)NCc2ccccc2)[C@@H]1c1ccc(CO)cc1
CLASS: true
//
GIVEN_SMILES: [N-]=[N+]=NCc1ccccc1C[C@@]1(C(=O)NCc2ccccc2)N=C(c2ccc(OCCCO)cc2)O[C@@H]1c1ccccc1
CLASS: false
//
GIVEN_SMILES: CCOC(=O)C[C@H]1[C@H](OC(=O)c2ccc(C(=O)c3ccccc3)cc2)[C@@H](NC(=O)Cc2ccc(OC)cc2)c2cc(OCCCO)ccc2N1C(=O)Cc1ccc(OC)cc1
CLASS: true

Kindly review the next compound as well.
Quick check, composite z-score >= -0.2? CC(C)(C)OC(=O)CC[C@]1(C(=O)NCc2ccccc2)COC(c2ccc(OCCCO)cc2)=N1 false

###

Tested on: glycogen synthase kinase-3 (GSK3A per assay name; protocol says GSK3B)
ASSAY_EXPLANATION: GSK3 binders on small-molecule microarrays, primary screen, biochemical, small-molecule microarray, 635 nm fluorescence, GSK3A (AID 1103); further: the record names both GSK3A and GSK3B
MEASUREMENT_SETUP: small-molecule microarray binding, fluorescence 635 nm; higher = more signal
Classify by measured composite z-score: yes if it is equal to or exceeds -0.7, no if it is smaller.

Worked cases, answers included:
COMPOUND: CCOC(=O)C[C@H]1[C@H](OC(=O)c2cc3ccccc3oc2=O)[C@@H](NC(=O)c2ccccc2)c2cc(OCCCO)ccc2N1C(=O)Cc1ccc(OC)cc1
CLASS: yes
--
COMPOUND: O=C1c2ccccc2[C@@]2(Cc3ccccc3N(CC(F)(F)F)C2=O)[C@H](c2ccc(CO)cc2)N1Cc1ccccc1C(F)(F)F
CLASS: no
--
COMPOUND: CCCNC(=O)[C@@]1(Sc2ccc(C)cc2)CC(=O)N(Cc2cc(C(F)(F)F)cc(C(F)(F)F)c2)[C@@H]1c1ccc(CO)cc1I
CLASS: yes

Has CCN(CC)c1ccc(N2CC=CC34O[C@@H]5C=CCOC(=O)[C@@H]5[C@H]3C(=O)N(C(C)CO)[C@@H]4C2=O)cc1 (stereo partly specified) a recorded composite z-score greater than or equal to -0.7? no

Does the compound COC(=O)C(CC#Cc1ccc2c(c1)[C@]1(C(=O)N2)[C@H](c2ccccc2OCCO)N2[C@H](c3ccccc3)[C@H](c3ccccc3)OC(=O)[C@H]2[C@@H]1C(=O)N1CCCCCCC1)C(=O)OC have recorded composite z-score that is -0.7 or more? yes

Has [N-]=[N+]=NCc1ccccc1C[C@@]1(C(=O)NCc2ccccc2)N=C(c2ccc(OCCCO)cc2)O[C@@H]1c1ccccc1 a recorded composite z-score greater than or equal to -0.7? yes
